tested on: 201T; test: relative viability (nuclei count vs DMSO), 5 days (fraction); higher = more cells survive; conditions: first compound 158.11 µM
experimental readout: relative viability
In your answer, state the number alone without any accompanying words.

Examples with their reported relative viability follow.
INSERT INTO results (compound, endpoint_result) VALUES
  ('O=C(O)CCCCC(CCSCc1ccccc1)SCc1ccccc1 (stereo not drawn) [CPI-613] + O=C(c1cc(Cc2n[nH]c(=O)c3ccccc23)ccc1F)N1CCN(C(=O)C2CC2)CC1 [Olaparib] (partner 8 µM)', 0.594),
  ('O=C(O)CCCCC(CCSCc1ccccc1)SCc1ccccc1 (stereo not drawn) [CPI-613] + C[C@@H](Oc1cc(-c2cnn(C3CCNCC3)c2)cnc1N)c1c(Cl)ccc(F)c1Cl [Crizotinib] (partner 1 µM)', 0.93);

Here is another compound to look at.
Value of measured relative viability for the entry O=C(O)CCCCC(CCSCc1ccccc1)SCc1ccccc1 (stereo not drawn) [CPI-613] + Nc1nc2[nH]cc(CCc3ccc(C(=O)N[C@@H](CCC(=O)O)C(=O)O)cc3)c2c(=O)[nH]1 [Pemetrexed] (partner 0.2 µM) : 0.24

###

tested on: NCI-H2009; experiment: relative viability (nuclei count vs DMSO), 5 days (fraction); higher = more cells survive; details: first compound 0.05 µM
Here the recorded relative viability is given for each entry.

Examples with their reported relative viability follow.
INSERT INTO assay_data (compound, experimental_readout, endpoint_result) VALUES
  ('COc1cc2nccc(Oc3ccc(NC(=O)Nc4cc(C)on4)c(Cl)c3)c2cc1OC [Tivozanib] + COc1cc2c(Oc3ccc(NC(=O)C4(C(=O)Nc5ccc(F)cc5)CC4)cc3F)ccnc2cc1OCCCN1CCOCC1 [Foretinib] (partner 0.25 µM)', 'relative viability', 1.19),
  ('COc1cc2nccc(Oc3ccc(NC(=O)Nc4cc(C)on4)c(Cl)c3)c2cc1OC [Tivozanib] + N=C(N)NC(=N)NCCc1ccccc1 [Phenformin] (partner 250 µM)', 'relative viability', 0.453),
  ('Nc1ccn([C@@H]2O[C@H](CO)[C@@H](O)[C@@H]2O)c(=O)n1 [Cytarabine] + CS(=O)(=O)N1CCN(Cc2cc3nc(-c4cccc5[nH]ncc45)nc(N4CCOCC4)c3s2)CC1 [Pictilisib] (partner 1 µM)', 'relative viability', 0.81),
  ('Nc1ccn([C@@H]2O[C@H](CO)[C@@H](O)[C@@H]2O)c(=O)n1 [Cytarabine] + C[C@@H](Oc1cc(-c2cnn(C3CCNCC3)c2)cnc1N)c1c(Cl)ccc(F)c1Cl [Crizotinib] (partner 1 µM)', 'relative viability', 0.955);

Here is another compound to look at.
Value of measured relative viability for the entry Nc1ccn([C@@H]2O[C@H](CO)[C@@H](O)[C@@H]2O)c(=O)n1 [Cytarabine] + CCNC(=O)c1noc(-c2cc(C(C)C)c(O)cc2O)c1-c1ccc(CN2CCOCC2)cc1 [Luminespib] (partner 0.01 µM) : 1.04

###

Here the recorded relative viability is given for each entry.
system: NCI-H460; assay: relative viability (nuclei count vs DMSO), 5 days (fraction); higher = more cells survive; settings: first compound 2.53 µM
In your answer, state the number alone without any accompanying words.

Examples with their reported relative viability follow.
INSERT INTO measurements (molecule, endpoint_result) VALUES
  ('Cc1cnc(-c2cnc(NCCNc3ccc(C#N)cn3)nc2-c2ccc(Cl)cc2Cl)[nH]1 + C[C@@H](Oc1cc(-c2cnn(C3CCNCC3)c2)cnc1N)c1c(Cl)ccc(F)c1Cl [Crizotinib] (partner 1 µM)', 0.776),
  ('Cc1cnc(-c2cnc(NCCNc3ccc(C#N)cn3)nc2-c2ccc(Cl)cc2Cl)[nH]1 + CS(=O)(=O)N1CCN(Cc2cc3nc(-c4cccc5[nH]ncc45)nc(N4CCOCC4)c3s2)CC1 [Pictilisib] (partner 1 µM)', 0.504);

Value of measured relative viability for the entry O=c1[nH]c2ccccc2n1C1CCN(CCCC(c2ccc(F)cc2)c2ccc(F)cc2)CC1 [Pimozide] + Cc1nc(Nc2ncc(C(=O)Nc3c(C)cccc3Cl)s2)cc(N2CCN(CCO)CC2)n1 [Dasatinib] (partner 0.075 µM) : 0.483
